System: IL-17A-induced G-CSF production in human normal keratinocyte (NHK)
protocol-text: NHK assay: IL-17A-induced G-CSF production in normal human keratinocytes
Assay type: cell-based
conditions-used: Homo sapiens, Keratinocyte, 24 h, IL-17A 5 ng/mL, average if tested more than once
pIC50: −log10 of the molar value.
Reported pIC50 values for the following compounds.
measured-property: pIC50

{"compound": "Cc1nonc1C(=O)N[C@@H](CC(C)(C)C(F)(F)F)c1nc2cc([C@H](NC(=O)CCC(F)(F)F)C3CC3)ccc2[nH]1 (relative stereo) [Example 193]", "test-system": "IL-17A-induced G-CSF production in human normal keratinocyte (NHK)", "measured-property": "pIC50", "data-value": "7.00 to 7.30"}
{"compound": "Cc1nonc1C(=O)N[C@H](c1nc2cc([C@@H](COC3CC3)NC(=O)C[C@H]3CC3(F)F)ccc2[nH]1)[C@@H](C)O[C@H](C)C(F)(F)F [Example 275]", "test-system": "IL-17A-induced G-CSF production in human normal keratinocyte (NHK)", "measured-property": "pIC50", "data-value": "7.00 to 7.30"}
{"compound": "CC(C)c1scnc1C(=O)N[C@H](c1nc2cc([C@@H](C)NC(=O)CCC(F)(F)F)ccc2[nH]1)C1CCC(F)(F)CC1 [Example 200]", "test-system": "IL-17A-induced G-CSF production in human normal keratinocyte (NHK)", "measured-property": "pIC50", "data-value": "7.00 to 7.30"}
{"compound": "C[C@@H](NC(=O)CCC(F)(F)F)c1ccc2[nH]c([C@@H](NC(=O)c3cnn(CCOC(F)(F)F)c3)C3CCC(F)(F)CC3)nc2c1 [Example 26]", "test-system": "IL-17A-induced G-CSF production in human normal keratinocyte (NHK)", "measured-property": "pIC50", "data-value": "< 7.00"}
{"compound": "CC(C)c1c(C(=O)NC(CC(C)(C)C(F)(F)F)c2nc3cc([C@@H](C)NC(=O)CCC(F)(F)F)ccc3[nH]2)no[n+]1[O-] (single isomer, unassigned) [Example 56]", "test-system": "IL-17A-induced G-CSF production in human normal keratinocyte (NHK)", "measured-property": "pIC50", "data-value": "7.00 to 7.30"}
{"compound": "CC(C)n1nccc1C(=O)N[C@H](c1nc2cc([C@H](NC(=O)CC3CC(F)(F)C3)C3CC3)ccc2[nH]1)C1CCC(F)(F)CC1 [Example 142]", "test-system": "IL-17A-induced G-CSF production in human normal keratinocyte (NHK)", "measured-property": "pIC50", "data-value": "> 7.30"}
{"compound": "C[C@@H](NC(=O)CCC(F)(F)F)c1ccc2[nH]c([C@@H](NC(=O)c3cn(CC(F)(F)F)nn3)C3CCC(F)(F)CC3)nc2c1 [Example 24]", "test-system": "IL-17A-induced G-CSF production in human normal keratinocyte (NHK)", "measured-property": "pIC50", "data-value": "< 7.00"}
{"compound": "Cc1nonc1C(=O)N[C@H](c1nc2ccc([C@H](NC(=O)CC3CC(F)(F)C3)C3CC3)cc2[nH]1)[C@H]1C[C@@H](CC(F)(F)F)C1 (single isomer, unassigned) [Example 244]", "test-system": "IL-17A-induced G-CSF production in human normal keratinocyte (NHK)", "measured-property": "pIC50", "data-value": "< 7.00"}
{"compound": "C[C@@H](NC(=O)CCC(F)(F)F)c1ccc2[nH]c([C@@H](NC(=O)c3cc(O)n(CCC(F)(F)F)n3)C3CCC(F)(F)CC3)nc2c1 [Example 93]", "test-system": "IL-17A-induced G-CSF production in human normal keratinocyte (NHK)", "measured-property": "pIC50", "data-value": "< 7.00"}
{"compound": "CC(OCC(NC(=O)c1nonc1C1CC1)c1nc2ccc([C@H](NC(=O)CC3CC(F)(F)C3)C3CC3)cc2[nH]1)C(F)(F)F (single isomer, unassigned) [Example 153]", "test-system": "IL-17A-induced G-CSF production in human normal keratinocyte (NHK)", "measured-property": "pIC50", "data-value": "< 7.00"}
{"compound": "CC(NC(=O)CCC(F)(F)F)c1ccc2nc([C@H](CC(C)(C)C(F)(F)F)NC(=O)c3ccnn3CCC(F)(F)F)[nH]c2c1 (single isomer, unassigned) [Example 229]", "test-system": "IL-17A-induced G-CSF production in human normal keratinocyte (NHK)", "measured-property": "pIC50", "data-value": "< 7.00"}
{"compound": "CC(C)n1nccc1C(=O)N[C@H](c1nc2ccc([C@@H](C)NC(=O)CCC(F)(F)F)cc2[nH]1)C1CCC(F)(F)CC1 [Example 122]", "test-system": "IL-17A-induced G-CSF production in human normal keratinocyte (NHK)", "measured-property": "pIC50", "data-value": "> 7.30"}
{"compound": "C[C@@H](NC(=O)CCC(F)(F)F)c1ccc2[nH]c([C@@H](NC(=O)c3coc(CCC(F)(F)F)n3)C3CCC(F)(F)CC3)nc2c1 [Example 225]", "test-system": "IL-17A-induced G-CSF production in human normal keratinocyte (NHK)", "measured-property": "pIC50", "data-value": "< 7.00"}
{"compound": "CC(C)c1oncc1C(=O)N[C@H](c1nc2cc([C@@H](C)NC(=O)CCC(F)(F)F)ccc2[nH]1)C1CCC(F)(F)CC1 [Example 202]", "test-system": "IL-17A-induced G-CSF production in human normal keratinocyte (NHK)", "measured-property": "pIC50", "data-value": "> 7.30"}
{"compound": "Cc1nonc1C(=O)N[C@@H](CC(C)(C)C(F)(F)F)c1nc2ccc([C@H](NC(=O)CC3CC3(F)F)C3CC3)cc2[nH]1 (single isomer, unassigned) [Example 183]", "test-system": "IL-17A-induced G-CSF production in human normal keratinocyte (NHK)", "measured-property": "pIC50", "data-value": "< 7.00"}
{"compound": "C[C@@H](NC(=O)CCC(F)(F)F)c1ccc2[nH]c([C@@H](NC(=O)c3cnn(CCC(F)(F)F)n3)C3CCC(F)(F)CC3)nc2c1 [Example 3]", "test-system": "IL-17A-induced G-CSF production in human normal keratinocyte (NHK)", "measured-property": "pIC50", "data-value": "< 7.00"}
{"compound": "CC(C)n1nccc1C(=O)NC(COC(C)(C)C(F)(F)F)c1nc2ccc([C@H](NC(=O)CC3CC(F)(F)C3)C3CC3)cc2[nH]1 (single isomer, unassigned) [Example 162]", "test-system": "IL-17A-induced G-CSF production in human normal keratinocyte (NHK)", "measured-property": "pIC50", "data-value": "< 7.00"}
{"compound": "C[C@@H](NC(=O)CCC(F)(F)F)c1ccc2[nH]c([C@@H](NC(=O)c3cnnn3CC(F)F)C3CCC(F)(F)CC3)nc2c1 [Example 38]", "test-system": "IL-17A-induced G-CSF production in human normal keratinocyte (NHK)", "measured-property": "pIC50", "data-value": "< 7.00"}
{"compound": "C[C@@H](NC(=O)CCC(F)(F)F)c1ccc2[nH]c([C@@H](NC(=O)[C@@H]3C[C@@H]3C#N)C3CCC(F)(F)CC3)nc2c1 [Example 102]", "test-system": "IL-17A-induced G-CSF production in human normal keratinocyte (NHK)", "measured-property": "pIC50", "data-value": "< 7.00"}
{"compound": "CC(C)(OCC(NC(=O)c1nonc1C1CC1)c1nc2ccc([C@H](NC(=O)CC3CC(F)(F)C3)C3CC3)cc2[nH]1)C(F)(F)F (single isomer, unassigned) [Example 163]", "test-system": "IL-17A-induced G-CSF production in human normal keratinocyte (NHK)", "measured-property": "pIC50", "data-value": "< 7.00"}
{"compound": "C[C@@H](NC(=O)CCC(F)(F)F)c1ccc2nc([C@@H](NC(=O)c3cn(CC4CC(F)(F)C4)nn3)C3CCC(F)(F)CC3)[nH]c2c1 [Example 65]", "test-system": "IL-17A-induced G-CSF production in human normal keratinocyte (NHK)", "measured-property": "pIC50", "data-value": "< 7.00"}
{"compound": "C[C@@H](NC(=O)CCC(F)(F)F)c1ccc2nc([C@@H](NC(=O)c3cccc(C#N)c3)C3CCC(F)(F)CC3)[nH]c2c1 [Example 131]", "test-system": "IL-17A-induced G-CSF production in human normal keratinocyte (NHK)", "measured-property": "pIC50", "data-value": "< 7.00"}
{"compound": "CC(NC(=O)CCC(F)(F)F)c1ccc2nc([C@H](CC(C)(C)C(F)(F)F)NC(=O)c3ccnn3C(C)C)[nH]c2c1 (single isomer, unassigned) [Example 231]", "test-system": "IL-17A-induced G-CSF production in human normal keratinocyte (NHK)", "measured-property": "pIC50", "data-value": "< 7.00"}

Entry source: patent US20240376085A1
